# TESTED_ON: UniProt P04150
# MEASUREMENT_PROTOCOL: Transactivation activity at GR-alpha in human NP1 Hela cells assessed as inhibition of GAL4-DBD after 20 hrs by luciferase reporter gene assay
# Format: cell-based
// values below are reported EC50
ASSAY_METRIC: EC50 (nM)

>>> quantitative_readout("CC(C)Oc1ccc(-c2ccc3c(n2)Oc2ccccc2[C@H]3C(C)(C)C(=O)Nc2nncs2)cc1")
77
>>> quantitative_readout("Cc1cccc(-c2ccc3c(n2)Oc2ccccc2[C@@H]3C(C)(C)C(=O)Nc2nncs2)c1")
1560
>>> quantitative_readout("CCc1ccc(-c2ccc3c(n2)Oc2ccccc2[C@H]3C(C)(C)C(=O)Nc2nncs2)cc1")
27
>>> quantitative_readout("CNC(=O)c1ccc(-c2ccc3c(n2)Oc2ccccc2[C@@H]3C(C)(C)C(=O)Nc2nncs2)cc1F")
408
>>> quantitative_readout("CC(=O)c1ccc(-c2ccc3c(n2)Oc2ccccc2[C@@H]3C(C)(C)C(=O)Nc2nncs2)cc1")
31
>>> quantitative_readout("CC(C)(C(=O)Nc1nncs1)[C@H]1c2ccccc2Oc2nc(-c3ccc(C(N)=O)cc3)ccc21")
202
>>> quantitative_readout("CNC(=O)c1ccc(-c2ccc3c(n2)Oc2ccccc2[C@@H]3C(C)(C)C(=O)Nc2nncs2)cc1")
806
>>> quantitative_readout("CC(C)(C(=O)Nc1nncs1)[C@H]1c2ccccc2Oc2nc(-c3ccc(C(=O)N4CCCCC4)c(F)c3)ccc21")
204
>>> quantitative_readout("CN(C)c1ccc(-c2ccc3c(n2)Oc2ccccc2[C@@H]3C(C)(C)C(=O)Nc2nncs2)cc1")
242
>>> quantitative_readout("Cc1ccccc1-c1ccc2c(n1)Oc1ccccc1[C@@H]2C(C)(C)C(=O)Nc1nncs1")
1560
>>> quantitative_readout("CC(C)(C(=O)Nc1nncs1)[C@H]1c2ccccc2Oc2nc(-c3ccc(C(=O)N4CCOCC4)cc3)ccc21")
28.6
>>> quantitative_readout("CC(C)(C(=O)Nc1nncs1)[C@H]1c2ccccc2Oc2nc(-c3ccc(C(=O)N4CCCCC4)cc3)ccc21")
167
>>> quantitative_readout("CCN(C)C(=O)c1ccc(-c2ccc3c(n2)Oc2ccccc2[C@@H]3C(C)(C)C(=O)Nc2nncs2)cc1F")
113
>>> quantitative_readout("CCCc1ccc(-c2ccc3c(n2)Oc2ccccc2[C@H]3C(C)(C)C(=O)Nc2nncs2)cc1")
36
>>> quantitative_readout("CN(C)C(=O)c1ccc(-c2ccc3c(c2)Oc2ccccc2C3C(C)(C)C(=O)Nc2nncs2)nc1 (racemic)")
162
>>> quantitative_readout("CN(C)C(=O)c1ccc(-c2ccc3c(c2)Oc2ccccc2C3C(C)(C)C(=O)Nc2nncs2)cc1 (racemic)")
610
>>> quantitative_readout("COc1ccc(-c2ccc3c(n2)Oc2ccccc2[C@H]3C(C)(C)C(=O)Nc2nncs2)cc1")
4360

---

# TESTED_ON: UniProtKB P04150
# MEASUREMENT_PROTOCOL: Transrepression activity at glucocorticoid receptor alpha in phorbol myristate acetate-stimulated human A549 cells assessed as inhibition of AP1 response element by luciferase reporter gene assay
# Type: cell-based
pEC50: −log10 of the molar value.
ASSAY_METRIC: pEC50

>>> quantitative_readout("CN(C)C(=O)c1ccc(-c2ccc3c(n2)Oc2ccccc2[C@@H]3C(C)(C)C(=O)Nc2nncs2)cc1")
7.91
>>> quantitative_readout("Cc1cccc(-c2ccc3c(n2)Oc2ccccc2[C@@H]3C(C)(C)C(=O)Nc2nncs2)c1")
6.18
>>> quantitative_readout("CC(C)(C(=O)Nc1nncs1)[C@H]1c2ccccc2Oc2nc(-c3ccc(C(=O)N4CCCCC4)c(F)c3)ccc21")
7.56
>>> quantitative_readout("CC(C)(C(=O)Nc1nncs1)[C@H]1c2ccccc2Oc2nc(-c3ccc(C(=O)N4CCCCC4)cc3)ccc21")
7.80
>>> quantitative_readout("CC(C)(C(=O)Nc1nncs1)[C@H]1c2ccccc2Oc2nc(-c3ccc(C(=O)N4CCC(F)(F)C4)c(Cl)c3)ccc21")
7.30
>>> quantitative_readout("CCN(C)C(=O)c1ccc(-c2ccc3c(n2)Oc2ccccc2[C@H]3C(C)(C)C(=O)Nc2nncs2)cc1")
7.76
>>> quantitative_readout("CN(C)C(=O)c1ccc(-c2ccc3c(n2)Oc2ccccc2[C@H]3C(C)(C)C(=O)Nc2nncs2)cc1F")
7.48

---

# MEASUREMENT_PROTOCOL: Oral bioavailability in Sprague-Dawley rat at 10 mg/kg
# Assay type: ADME, organism-based
# REPORTED_CONDITIONS: in vivo
ASSAY_METRIC: bioavailability

>>> result("CN(C)C(=O)c1ccc(-c2ccc3c(n2)Oc2ccccc2[C@H]3C(C)(C)C(=O)Nc2nncs2)cc1F")
"20%"
>>> result("CCN(C)C(=O)c1ccc(-c2ccc3c(n2)Oc2ccccc2[C@@H]3C(C)(C)C(=O)Nc2nncs2)cc1F")
"17%"

---

# TESTED_ON: Glucocorticoid receptor (Homo sapiens)
# Sequence (P04150 whole entry): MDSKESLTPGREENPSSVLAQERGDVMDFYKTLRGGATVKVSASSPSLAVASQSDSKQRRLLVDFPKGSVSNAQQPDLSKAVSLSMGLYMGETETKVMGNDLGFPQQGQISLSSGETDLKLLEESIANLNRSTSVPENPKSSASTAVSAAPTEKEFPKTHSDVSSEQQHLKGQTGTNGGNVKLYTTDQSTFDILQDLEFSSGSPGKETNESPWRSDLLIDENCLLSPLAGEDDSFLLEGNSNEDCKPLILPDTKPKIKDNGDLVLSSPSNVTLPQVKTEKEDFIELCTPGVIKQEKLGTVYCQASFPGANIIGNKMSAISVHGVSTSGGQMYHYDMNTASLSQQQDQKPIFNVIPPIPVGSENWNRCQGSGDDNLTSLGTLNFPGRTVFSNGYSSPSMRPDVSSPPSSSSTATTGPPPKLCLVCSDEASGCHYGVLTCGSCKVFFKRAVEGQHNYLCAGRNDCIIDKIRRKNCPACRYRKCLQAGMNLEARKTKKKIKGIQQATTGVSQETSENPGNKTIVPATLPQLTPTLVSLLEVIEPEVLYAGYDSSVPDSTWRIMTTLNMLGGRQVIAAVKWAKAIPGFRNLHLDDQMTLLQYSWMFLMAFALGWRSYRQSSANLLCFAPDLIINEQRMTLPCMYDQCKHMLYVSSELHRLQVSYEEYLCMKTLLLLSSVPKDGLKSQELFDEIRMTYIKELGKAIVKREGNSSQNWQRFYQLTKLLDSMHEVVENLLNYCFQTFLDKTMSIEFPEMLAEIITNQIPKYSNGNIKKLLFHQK
# MEASUREMENT_PROTOCOL: Transactivation activity at glucocorticoid receptor alpha human 13D3/Huh7 cells assessed as induction of TAT activity after 4 hrs by spectrophotometry
# Type: cell-based, Huh-7
// values below are reported EC50
ASSAY_METRIC: EC50 (nM)

>>> quantitative_readout("CCCc1ccc(-c2ccc3c(n2)Oc2ccccc2[C@H]3C(C)(C)C(=O)Nc2nncs2)cc1")
823
>>> quantitative_readout("CC(C)(C(=O)Nc1nncs1)[C@H]1c2ccccc2Oc2nc(-c3ccc(C(=O)N4CCCC4)c(F)c3)ccc21")
389
>>> quantitative_readout("CC(C)(C(=O)Nc1nncs1)[C@H]1c2ccccc2Oc2nc(-c3ccc(C(=O)N4CCOCC4)c(F)c3)ccc21")
93
>>> quantitative_readout("CC(C)(C(=O)Nc1nncs1)[C@H]1c2ccccc2Oc2nc(-c3ccc(C(=O)N4CCC(F)(F)C4)c(Cl)c3)ccc21")
329
>>> quantitative_readout("CCN(C)C(=O)c1ccc(-c2ccc3c(n2)Oc2ccccc2[C@H]3C(C)(C)C(=O)Nc2nncs2)cc1")
740

---

# TESTED_ON: UniProtKB P04150
# MEASUREMENT_PROTOCOL: Transrepression activity at glucocorticoid receptor alpha in IL-1beta-stimulated human A549 cells assessed as inhibition of NFkappaB-dependent E-selectin transcription by luciferase reporter gene assay
# Format: cell-based
pEC50: −log10 of the molar value.
ASSAY_METRIC: pEC50

>>> quantitative_readout("CCCc1ccc(-c2ccc3c(n2)Oc2ccccc2[C@H]3C(C)(C)C(=O)Nc2nncs2)cc1")
7.53
>>> quantitative_readout("CC(=O)c1ccc(-c2ccc3c(n2)Oc2ccccc2[C@@H]3C(C)(C)C(=O)Nc2nncs2)cc1")
7.99
>>> quantitative_readout("CC(C)(C(=O)Nc1nncs1)[C@H]1c2ccccc2Oc2nc(-c3ccc(C(=O)N4CCOCC4)c(F)c3)ccc21")
7.93
>>> quantitative_readout("CNC(=O)c1ccc(-c2ccc3c(n2)Oc2ccccc2[C@@H]3C(C)(C)C(=O)Nc2nncs2)cc1F")
6.80
>>> quantitative_readout("CC(C)(C(=O)Nc1nncs1)[C@@H]1c2ccccc2Oc2nc(-c3ccc(O)cc3)ccc21")
6.97
>>> quantitative_readout("CCc1ccc(-c2ccc3c(n2)Oc2ccccc2[C@H]3C(C)(C)C(=O)Nc2nncs2)cc1")
8.08
>>> quantitative_readout("CC(C)(C(=O)Nc1nncs1)[C@H]1c2ccccc2Oc2nc(-c3ccc(C(=O)N4CCCCC4)cc3)ccc21")
7.54
>>> quantitative_readout("COc1ccc(-c2ccc3c(n2)Oc2ccccc2[C@@H]3C(C)(C)C(=O)Nc2nncs2)cc1")
7.67
>>> quantitative_readout("Cc1ccc(-c2ccc3c(n2)Oc2ccccc2[C@@H]3C(C)(C)C(=O)Nc2nncs2)cc1")
7.58
>>> quantitative_readout("CCN(C)C(=O)c1ccc(-c2ccc3c(n2)Oc2ccccc2[C@@H]3C(C)(C)C(=O)Nc2nncs2)cc1F")
8.16
>>> quantitative_readout("CC(C)(C(=O)Nc1nncs1)[C@H]1c2ccccc2Oc2nc(-c3ccc(C(=O)N4CCCCC4)c(F)c3)ccc21")
7.59
>>> quantitative_readout("CC(C)(C(=O)Nc1nncs1)[C@H]1c2ccccc2Oc2nc(-c3ccc(C(=O)N4CCCC4)c(F)c3)ccc21")
7.53
>>> quantitative_readout("CN(C)C(=O)c1ccc(-c2ccc3c(n2)Oc2ccccc2[C@@H]3C(C)(C)C(=O)Nc2nncs2)cc1")
8.34
>>> quantitative_readout("CC(C)(C(=O)Nc1nncs1)[C@H]1c2ccccc2Oc2nc(-c3ccc(C(=O)N4CCOCC4)cc3)ccc21")
8.20
>>> quantitative_readout("CC(C)(C(=O)Nc1nncs1)[C@H]1c2ccccc2Oc2nc(-c3ccc(C(=O)N4CCC(F)(F)C4)c(F)c3)ccc21")
7.69
>>> quantitative_readout("CC(C)Oc1ccc(-c2ccc3c(n2)Oc2ccccc2[C@@H]3C(C)(C)C(=O)Nc2nncs2)cc1F")
7.14
>>> quantitative_readout("CNC(=O)c1ccc(-c2ccc3c(n2)Oc2ccccc2[C@@H]3C(C)(C)C(=O)Nc2nncs2)cc1")
6.67
>>> quantitative_readout("CCS(=O)(=O)c1ccc(-c2ccc3c(n2)Oc2ccccc2[C@@H]3C(C)(C)C(=O)Nc2nncs2)cc1")
7.64
>>> quantitative_readout("CC(C)(C(=O)Nc1nncs1)[C@H]1c2ccccc2Oc2nc(-c3ccc(C(=O)N4CCC(F)(F)C4)c(Cl)c3)ccc21")
7.47
